# Tested on: Fibroblast
# assay-comment: Multiplex assay against human fibroblast
# Type: toxicity, cell-based
# assay-context: 24 h, 1 µM, compound concentration 1 uM, replicate 1
I'd be grateful if you could share measured Population Normal (%) for these entries.
Dear colleague, please return just the value in %, with no unit written.

Reported Population Normal (%), compound `CNC(=O)c1ccc(Nc2nc(OC3CCCC3)c3c(-c4ccc5nc(C)oc5c4)c[nH]c3n2)c(OC)c1` : ____ 89

Reported Population Normal (%), compound `Cl.O=c1c2cccn2c2ccccc2n1CCCN1CCC(c2ccc(Cl)cc2)CC1` : ____ 88

Reported Population Normal (%), compound `O=C(Nc1cccnn1)N1CCC(=Cc2cccc(Oc3ccc(C(F)(F)F)cn3)c2)CC1` : ____ 93

Reported Population Normal (%), compound CN(C)C(=O)C(CCN1CCC(O)(c2ccc(Cl)cc2)CC1)(c1ccccc1)c1ccccc1.Cl [LOPERAMIDE HYDROCHLORIDE] : ____ 87
